Reference source for all entries: the supplement of paper PMC9694430

system: LOC_OS04G41100-cb001; assay: thermal shift delta Tm vs DMSO control; higher = stronger stabilization (binding); conditions: 12.5 µM; protein concentration 2 µM;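 also: purified Escherichia coli-expressed rice kinase domain construct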
Sequence (as listed by the source): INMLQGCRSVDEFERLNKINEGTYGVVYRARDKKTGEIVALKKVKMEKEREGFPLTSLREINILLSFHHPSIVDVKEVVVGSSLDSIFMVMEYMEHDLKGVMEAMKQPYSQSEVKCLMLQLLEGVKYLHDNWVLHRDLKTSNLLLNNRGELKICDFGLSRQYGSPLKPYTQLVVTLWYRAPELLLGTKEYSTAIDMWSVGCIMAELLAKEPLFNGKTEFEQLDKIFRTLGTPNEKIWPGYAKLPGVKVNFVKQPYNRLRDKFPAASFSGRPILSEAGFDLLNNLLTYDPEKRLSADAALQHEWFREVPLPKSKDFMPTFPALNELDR
quantity_name: thermal shift delta Tm (°C)
Could you give me the number in °C? Just the number is fine.

Some solved cases for reference:
{"columns": ["compound", "thermal shift delta Tm [°C]"],
 "data": [
  ["Oc1ccc(Nc2nc(-c3ccc(Cl)cc3)cs2)cc1", 0.69],
  ["Fc1ccc2[nH]ccc2c1-c1nc(N2CCOCC2)c2sc(CN3CCN(CC4CC4)CC3)cc2n1", 0.18],
  ["O=C(Nc1ccccc1C(=O)NC1CCCCNC1=O)c1cc2ccccc2s1 (centres undefined)", 0.17],
  ["CN(C)Cc1cccc(N=C(c2ccccc2)c2c(O)[nH]c3cc(C(=O)N(C)C)ccc23)c1", 0.45],
  ["CS(=O)(=O)CCNCc1ccc(-c2ccc3ncnc(Nc4ccc(OCc5cccc(F)c5)c(Cl)c4)c3c2)o1 [Lapatinib]", 0.92]
]}

Entry under review: CC(C)c1cnn2c(NCc3ccccc3-n3cccn3)nc(OC3CCCNC3)nc12 (centres undefined) . Reported thermal shift delta Tm?
0.57

Cc1cc(Nc2ncnc3ccc(NC4=NC(C)(C)CO4)cc23)ccc1Oc1ccn2ncnc2c1 [Irbinitinib (ARRY-380, ONT-380)] , same question.
0.49

Next record, please: CC1=C(C(=O)Nc2cc3cn[nH]c3cc2F)C(c2ccc(C(F)(F)F)cc2)CC(=O)N1 (centres undefined)
0.48

###

tested on: LOC_OS04G57630-cb004; test: thermal shift delta Tm vs DMSO control; higher = stronger stabilization (binding); settings: 12.5 µM; protein concentration 2 µM
Label rule, in plain words: thermal shift delta Tm of 0.8 °C and up is true, under 0.8 °C is false.

Illustrative cases are given below, each with its answer.
{"columns": ["compound", "qualitative_label"],
 "data": [
  ["COC(=O)[C@]12CCC(C)(C)C[C@H]1[C@H]1C(=O)C=C3[C@@]4(C)C=C(C#N)C(=O)C(C)(C)[C@@H]4CC[C@@]3(C)[C@]1(C)CC2", "false"],
  ["COc1cc(CCc2cc(NC(=O)c3ccc(N4CC(C)NC(C)C4)cc3)n[nH]2)cc(OC)c1 (stereo not drawn)", "true"]
]}

Hi, just wondering whether Cn1cc(/C=C2\C(=O)Nc3cccnc32)c2ccccc21 shows thermal shift delta Tm of 0.8 °C or higher.
true

Same read-out for CC(C)Oc1ccc(-c2nn([C@@H](C)c3oc4ccc(F)cc4c(=O)c3-c3cccc(F)c3)c3ncnc(N)c23)cc1F ?
false

Would you kindly repeat that for O=c1cc(N2CCOCC2)oc2c1ccc1ccccc12 ?
false

Also, CN(C)C[C@@H]1CCn2cc(c3ccccc32)C2=C(C(=O)NC2=O)c2cn(c3ccccc23)CCO1 please.
false

###

test system: LOC_OS06G16330-cb003; test: thermal shift delta Tm vs DMSO control; higher = stronger stabilization (binding); settings: 12.5 µM; protein concentration 2 µM
Sequence (as listed by the source): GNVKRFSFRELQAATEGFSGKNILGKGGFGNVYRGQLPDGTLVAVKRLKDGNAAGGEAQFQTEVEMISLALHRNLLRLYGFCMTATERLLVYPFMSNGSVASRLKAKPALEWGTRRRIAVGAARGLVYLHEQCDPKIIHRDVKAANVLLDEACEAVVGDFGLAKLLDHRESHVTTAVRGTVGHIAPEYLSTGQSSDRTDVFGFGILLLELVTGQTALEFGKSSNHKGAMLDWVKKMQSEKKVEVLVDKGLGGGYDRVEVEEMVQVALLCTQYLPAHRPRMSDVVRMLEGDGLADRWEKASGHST
Parameter threshold = 0.2 °C. Response is condition met when thermal shift delta Tm meets or exceeds it, else condition not met.

Past entries and their recorded results:
{"columns": ["compound", "qualitative_label"],
 "data": [
  ["OC1CCC(Oc2cccc3cnc(Nc4ccc5nc[nH]c5c4)nc23)CC1 (stereo not drawn)", "condition met"],
  ["CC(C)(O)CC(=O)NCCn1ccc2ncnc(Nc3ccc(Oc4cccc(C(F)(F)F)c4)c(Cl)c3)c21", "condition met"],
  ["COc1cc2c(Oc3ccc(NC(=O)C4(C(=O)Nc5ccc(F)cc5)CC4)cc3F)ccnc2cc1OCCCN1CCOCC1", "condition met"],
  ["Cc1cccc(CC(=O)N2CCc3c2ccc(-c2cn(C)c4ncnc(N)c24)c3F)n1", "condition met"],
  ["COc1cccc(-n2c(=O)[nH]c3cc(Cl)n(-c4ccc(-c5cccc(OC)c5O)cc4)c3c2=O)c1", "condition not met"],
  ["CC(C)(C)c1cc(NC(=O)Nc2ccc(Oc3ccnc4[nH]c(=O)cnc34)cc2F)n(-c2ccccc2)n1", "condition met"],
  ["CC[C@H](CO)Nc1nc(NCc2ccccc2)c2ncn(C(C)C)c2n1 [Roscovitine (Seliciclib,CYC202)]", "condition not met"]
]}

Okay, next one:
Determine whether this compound has thermal shift delta Tm no lower than 0.2 °C: COCC(=O)NC/C=C/c1ccc2ncnc(Nc3ccc(Oc4ccc(C)nc4)c(C)c3)c2c1
condition met
